Data provenance is the supplement of paper PMC10307832.

System: HARA
Experiment: relative viability (nuclei count vs DMSO), 5 days (fraction); higher = more cells survive
Details: first compound 0.8 µM
readout_label: relative viability
Just the number, please, no unit after it.

Cc1cnc(-c2cnc(NCCNc3ccc(C#N)cn3)nc2-c2ccc(Cl)cc2Cl)[nH]1 + CC(=O)Nc1cccc(-n2c(=O)n(C3CC3)c(=O)c3c(Nc4ccc(I)cc4F)n(C)c(=O)c(C)c32)c1 [Trametinib] (partner 0.02 µM) ... 0.623

Query block: Could you share what relative viability was measured for O=c1[nH]c2ccccc2n1C1CCN(CCCC(c2ccc(F)cc2)c2ccc(F)cc2)CC1 [Pimozide] + CS(=O)(=O)N1CCN(Cc2cc3nc(-c4cccc5[nH]ncc45)nc(N4CCOCC4)c3s2)CC1 [Pictilisib] (partner 1 µM) , tested on HARA?
Result block: 0.595

Query block: Fill in the recorded relative viability for this compound, with HARA as test system: O=c1[nH]c2ccccc2n1C1CCN(CCCC(c2ccc(F)cc2)c2ccc(F)cc2)CC1 [Pimozide] + Cc1nc(Nc2ncc(C(=O)Nc3c(C)cccc3Cl)s2)cc(N2CCN(CCO)CC2)n1 [Dasatinib] (partner 0.075 µM)
Result block: 0.275

Query block: Please provide the recorded relative viability for O=c1[nH]c2ccccc2n1C1CCN(CCCC(c2ccc(F)cc2)c2ccc(F)cc2)CC1 [Pimozide] + NC(=O)Nc1cc(-c2cccc(F)c2)sc1C(=O)N[C@H]1CCCNC1 [AZD7762] (partner 0.2 µM) , tested on HARA.
Result block: 0.318

Query block: What measured relative viability is associated with Cc1cnc(-c2cnc(NCCNc3ccc(C#N)cn3)nc2-c2ccc(Cl)cc2Cl)[nH]1 + Nc1nc2[nH]cc(CCc3ccc(C(=O)N[C@@H](CCC(=O)O)C(=O)O)cc3)c2c(=O)[nH]1 [Pemetrexed] (partner 0.2 µM) on HARA?
Result block: 0.255
